This section presents compounds with their documented Ki(app) values.
molecular target: specific ANP receptor sites on BASM or BAE cells (Bos taurus, UniProt P10730); construct: specific receptor sites on BASM or BAE cells; endogenous in cells; host or cells: cultured BASM and BAE cells; assay: Competitive displacement receptor binding of (125I)-rANP(126-150) on cultured cells; set-up: species or system bovine; conditions: concentration of unlabeled peptide displacing 50% of maximal binding of 0.5 nM (125I)-rANP(126-150); BASM or BAE cells
Sequence (P10730 42-537): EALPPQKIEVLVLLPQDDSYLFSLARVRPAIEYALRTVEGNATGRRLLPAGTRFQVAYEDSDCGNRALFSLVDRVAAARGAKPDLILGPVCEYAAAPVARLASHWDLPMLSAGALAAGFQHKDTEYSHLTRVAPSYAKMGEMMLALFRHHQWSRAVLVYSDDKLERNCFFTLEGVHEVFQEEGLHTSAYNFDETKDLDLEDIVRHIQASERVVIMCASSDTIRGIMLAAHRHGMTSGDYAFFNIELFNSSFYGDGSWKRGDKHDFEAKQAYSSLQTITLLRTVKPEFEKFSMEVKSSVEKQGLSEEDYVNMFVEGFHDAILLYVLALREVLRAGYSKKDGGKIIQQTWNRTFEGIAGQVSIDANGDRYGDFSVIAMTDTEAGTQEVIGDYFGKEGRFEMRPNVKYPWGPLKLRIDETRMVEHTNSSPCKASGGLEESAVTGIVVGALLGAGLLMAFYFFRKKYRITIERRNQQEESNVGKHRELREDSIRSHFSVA
*1 amine or outer side, *2 acyl side, *3 side chain or, on linkers, in order; H or OH if unused. Where a SMILES comes first, the peptide text is derived from it. [ ]: non-standard residue; d: D form. The star is where a group is joined. X5 = O=C(C(Cc1cccc2ccccc12)Cc1cccc2ccccc12)*; NH(2S-methylbutyl) = CC[C@H](C)CN*; 2Naphthoyl = O=C(c1ccc2ccccc2c1)*; X1 = O=C(Cc1ccc(N[*:1])cc1)[*:2]
Please give a number only; it is taken to be in µM.

| Compound | Ki(app) / µM |
| --- | --- |
| CC[C@@H](C)[C@@H](NC(=O)[C@H](CCCNC(=N)N)NC(=O)CNC(=O)CNC(=O)[C@H](Cc1ccccc1)NC(=O)[C@H](C)N)C(=O)N[C@@H](CC(=O)O)C(=O)N[C@@H](CCCNC(=N)N)C(=O)N[C@H](C(=O)NCC(=O)N[C@@H](C)C(N)=O)[C@@H](C)CC [AP302, A--F--G--G--R--I^ --D--R--I--G--A--NH2] (H-AFGGR[dI]DRIGA-NH2) | 0.0189 |

Query: # get_value(readout='Ki(app)', item= CC[C@H](C)CNC(=O)[C@H](CCCNC(=N)N)NC(=O)[C@H](CC(=O)O)NC(=O)[C@@H](NC(=O)[C@H](CCCNC(=N)N)NC(=O)Cc1ccc(NC(=O)c2ccc3ccccc3c2)cc1)[C@@H](C)CC [AP811] (2Naphthoyl-[X1]RIDR-{NH(2S-methylbutyl)}) )
Result: 0.00252

Query: Entry to check: CC[C@H](C)[C@H](NC(=O)[C@H](CCCNC(=N)N)NC(=O)[C@H](CC(=O)O)NC(=O)[C@@H](NC(=O)[C@H](CCCNC(=N)N)NC(=O)CNC(=O)CNC(=O)C(Cc1cccc2ccccc12)Cc1cccc2ccccc12)[C@@H](C)CC)C(=O)NCC(=O)N[C@@H](C)C(N)=O [AP533] (X5-GGRIDRIGA-NH2)
Result: 0.052

meta.source: patent US5047397A
